- Assay method text: Human HepG2 cell viability assay in 384 well format
- Format: toxicity, cell-based
- Set-up: dose 125 nL, time 70.5 hour; concentration not given beside the values
- Test settings: HepG2 cells, read-out: Inhibition
Reported metric: cytotoxicity at 70.5 h (%)
Output spec: scalar in %, unitless text.

* Cc1ccc(C(=O)NC2CCN(Cc3noc(CC(C)C)n3)CC2)s1 | 7.31
* O=C1CC2(CCN(Cc3ccc(-c4ccn[nH]4)s3)CC2)CN1 | -13.8
* CCc1noc(CN(CC)C(=O)C2CC(=O)N(Cc3ccncc3)C2)n1 (centres undefined) | 35.2

Task: Using the record for `CCCn1c(N2CCCC2)nc2c(C)nn(C)c2c1=O` , report its cytotoxicity at 70.5 h.
Output: -6.89

Task: // query cytotoxicity at 70.5 h value for entry `COCCN(Cc1ccc(F)cc1Cl)C(=O)c1cnn(C)c1C`
Output: 7.76

Task: Look at this compound and give its reported cytotoxicity at 70.5 h. `Cc1cnn(CCNCc2ccc(OCc3cccnc3)cc2)c1`
Output: -4.14

Task: Record request: cytotoxicity at 70.5 h value, item `O=C1NC(c2cccnc2)=NC12CCN(CCCc1ccccc1)CC2`
Output: -8.89

Task: Reported cytotoxicity at 70.5 h, compound `COc1cccc2c3c(c(=O)[nH]c12)CCO3` : ____
Output: 3.58

Task: Returns the measured cytotoxicity at 70.5 h for the input compound. Input: CC(C)NC(=O)CNC(C)COc1ccccc1 (centres undefined)
Output: -12.1

Task: Would you kindly share the measured cytotoxicity at 70.5 h for `Cc1cc(C(=O)NCC(F)(F)F)c2c(C3CCNCC3)noc2n1` ?
Output: 25.3

// provenance: ChEMBL document CHEMBL3507680
